# target_of_assay: lamb brain αβ-tubulin heterodimer (lamb (purified from lamb brain))
# assay_details: ITC; PEAQ-ITC, 20 °C, 55 µM tubulin in the cell, 2.2 mM myotoxin 3 in the syringe, 20 mM sodium phosphate pH 6.5, 1 mM TCEP, 0.1 mM GTP (non-assembly buffer), one-set-of-sites model
measure: Kd (µM)
Numbers only, in µM.

## Input Field request: Kd | item: YKRCHKKGGHCFPKTVICLPPSSDFGKMDCRWKWKCCKKGSVNNA (cysteines not oxidized (no disulfide bonds)) [synthetic non-oxidized myotoxin-3 (without disulfide bonds)]
## Output 5.3
